# ASSAY_NAME: MTT cytotoxicity assay in A549 cells
# Assay type: cell-based
# RUN_CONDITIONS: human
READOUT: CC50 at 96 h

Query block: State the recorded CC50 at 96 h for this entry: CCc1c(C2CCCCC2)nc(SCC(=O)Nc2cc(F)cc(F)c2)[nH]c1=O
Result block: > 200 µM

###

Item-by-item account of melting point

CCc1c(CC2CCCCC2)nc(SCC(=O)Nc2cc(F)ccc2OC)[nH]c1=O = 182 to 183 °C
CCc1c(C2CCCCC2)nc(SCC(=O)Nc2ccc(F)cc2)[nH]c1=O = 273 to 274 °C
CCc1c(C2CCCCC2)nc(SCC(=O)Nc2cc(F)ccc2F)[nH]c1=O = 190 to 192 °C
CCc1c(C2CCCCC2)nc(SCC(=O)Nc2ccc(F)cc2F)[nH]c1=O = 227 to 229 °C
CCc1c(C2CCCCC2)nc(SCC(=O)Nc2cccc(OC)c2)[nH]c1=O = 207 to 209 °C

Query block: State the recorded melting point for this entry: CCc1c(C2CCCCC2)nc(SCC(=O)Nc2ccccc2F)[nH]c1=O
Result block: 206 to 208 °C

Query block: State the recorded melting point for this entry: CCc1c(C2CCCCC2)nc(SCC(=O)Nc2cccc(F)c2)[nH]c1=O
Result block: 184 to 187 °C
